Taken from patent US9999650B2.

Biological target: human plasma kallikrein (Homo sapiens, UniProt P03952)
Construct: purchased Enzyme Research Laboratories HPKa 1303
Sequence (P03952 20-390 limits assumed): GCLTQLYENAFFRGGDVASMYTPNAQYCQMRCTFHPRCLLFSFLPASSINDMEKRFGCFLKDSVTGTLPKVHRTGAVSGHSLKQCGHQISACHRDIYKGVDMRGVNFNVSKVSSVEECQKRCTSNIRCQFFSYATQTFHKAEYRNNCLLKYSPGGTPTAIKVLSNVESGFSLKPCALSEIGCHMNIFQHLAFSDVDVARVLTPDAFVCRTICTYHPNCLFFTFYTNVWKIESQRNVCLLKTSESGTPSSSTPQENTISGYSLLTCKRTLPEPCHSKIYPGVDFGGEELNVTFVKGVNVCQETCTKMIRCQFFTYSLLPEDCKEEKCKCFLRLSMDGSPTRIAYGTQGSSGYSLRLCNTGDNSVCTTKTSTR
Sequence (P03952 391-638 limits assumed): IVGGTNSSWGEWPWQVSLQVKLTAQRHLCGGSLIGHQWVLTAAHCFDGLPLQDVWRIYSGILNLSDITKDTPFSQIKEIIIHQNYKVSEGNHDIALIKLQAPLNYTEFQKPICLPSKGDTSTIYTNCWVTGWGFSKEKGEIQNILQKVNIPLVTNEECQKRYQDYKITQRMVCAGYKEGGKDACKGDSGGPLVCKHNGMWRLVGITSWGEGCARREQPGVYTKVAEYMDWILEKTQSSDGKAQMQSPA
Assay: Enzyme inhibition assay (fluorogenic substrate H-Pro-Phe-Arg-AMC)
Format: biochemical
Conditions: Kallikrein inhibitory activity; 1 nM activated human kallikrein, 500 μM H-Pro-Phe-Arg-AMC, 1 hour room temperature; read-out: Avg. IC50
Numbered stars: 1 amine (or outer) side, 2 acyl side, 3 side chain; on linkers, the order of the positions; unused ones are H or OH. Bridge positions count the residues as written; N and C are the ends. Square brackets hold non-standard residues; d marks the D form. Peptide text beside a SMILES is read from it. Trp(7-aza) = N[C@@H](Cc1c[nH]c2ncccc12)C(=O)O; mXylylene = c1cc(C[*:1])cc(C[*:2])c1; Chg = N[C@H](C(=O)O)C1CCCCC1; Phg = N[C@H](C(=O)O)c1ccccc1; Tle = CC(C)(C)[C@H](N)C(=O)O; Thp = NC1(C(=O)O)CCOCC1; Mpa = O=C(O)CCS
IC50 values, listed per item
measured.parameter: IC50 (nM)

molecule="C[C@@H]1NC(=O)C2(CCOCC2)NC(=O)CCSCc2cccc(c2)CSC[C@@H](C(=O)N[C@@H](Cc2c[nH]c3ncccc23)C(=O)N[C@H](C(N)=O)C(C)(C)C)NC(=O)[C@H](C2CCCCC2)NC1=O [Compound R2147] ([Mpa][Thp]A[Chg]C[Trp(7-aza)][Tle]-NH2; linker 1-5 via mXylylene)" system="human plasma kallikrein (Homo sapiens, UniProt P03952)" result_modifier=> experimental_value=2190
molecule="CC(=O)N[C@@H](CS)C(=O)N[C@@H](CC(N)=O)C(=O)N[C@@H](Cc1ccc(O)cc1)C(=O)N[C@@H](Cc1c[nH]c2ccccc12)C(=O)N[C@H](CO)C(=O)N1CCC[C@H]1C(=O)N[C@@H](Cc1c[nH]c2ccccc12)C(=O)N[C@H](C(=O)N[C@@H](C)C(=O)N[C@@H](CS)C(N)=O)[C@@H](C)O [Compound R2230, Ac-CNYWsPWTAC-NH2] (Ac-CNYW[dS]PWTAC-NH2)" system="human plasma kallikrein (Homo sapiens, UniProt P03952)" result_modifier=> experimental_value=6580
molecule="CC[C@H](C)[C@@H]1NC(=O)[C@H](CO)NC(=O)[C@H](CCC(=O)O)NC(=O)[C@@H](NC(=O)[C@@H](N)CCSC)CSCc2cccc(c2)CSC[C@@H](C(=O)N[C@@H](CCCNC(=N)N)C(=O)N[C@H](C(N)=O)C(C)(C)C)NC1=O [Compound R2010, [mXylyl(2,6)]MCESICR-Tbg-NH2] (H-MCESICR[Tle]-NH2; linker 2-6 via mXylylene; N-terminus assumed)" system="human plasma kallikrein (Homo sapiens, UniProt P03952)" result_modifier== experimental_value=9.9
molecule="CSCC[C@H](N)C(=O)N[C@@H](CS)C(=O)N[C@@H](CC(N)=O)C(=O)N[C@@H](Cc1ccc(O)cc1)C(=O)N[C@@H](Cc1c[nH]c2ccccc12)C(=O)N[C@@H](CO)C(=O)N1CCC[C@H]1C(=O)N[C@@H](Cc1c[nH]c2ccccc12)C(=O)N[C@H](C(=O)N[C@@H](CCC(=O)O)C(=O)N[C@@H](CS)C(=O)N[C@@H](CO)C(N)=O)[C@@H](C)O [Compound R2110, MCNYWSPWTECS-NH2] (H-MCNYWSPWTECS-NH2; N-terminus assumed)" system="human plasma kallikrein (Homo sapiens, UniProt P03952)" result_modifier== experimental_value=3.5
molecule="CSCC[C@H](N)C(=O)N[C@H]1CSCc2cccc(c2)CSC[C@@H](C(=O)N[C@@H](CCCNC(=N)N)C(=O)N[C@H](C(N)=O)C(C)C)NC(=O)[C@H](c2ccccc2)NC(=O)[C@H](CO)NC(=O)[C@H](CCC(=O)O)NC1=O [Compound R2012, [mXylyl(2,6)]MCES-Phg-CRV-NH2] (H-MCES[Phg]CRV-NH2; linker 2-6 via mXylylene; N-terminus assumed)" system="human plasma kallikrein (Homo sapiens, UniProt P03952)" result_modifier== experimental_value=8.3
